These entries and their values trace back to patent US20250237662A1.

Would you mind telling me the reported S/B of each entry?
# Assay Target: humanized development candidate monoclonal antibody IgG4 (hIgG4)
# Experimental Details: Gyrolab, mAb as capture, hIgG4 0.32 ng/ml, against the blank
Response field accepts a number only; no unit should be typed.

// query Quick check: S/B of rabbit anti-human IgG monoclonal antibody clone 2C5 (antibody, V domains shown) VH: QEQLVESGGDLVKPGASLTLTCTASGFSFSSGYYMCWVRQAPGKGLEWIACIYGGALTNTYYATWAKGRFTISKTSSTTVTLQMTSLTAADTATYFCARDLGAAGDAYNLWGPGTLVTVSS VL: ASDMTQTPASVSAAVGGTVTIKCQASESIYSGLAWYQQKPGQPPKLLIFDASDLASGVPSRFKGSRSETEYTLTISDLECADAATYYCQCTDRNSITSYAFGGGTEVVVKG ?
// result 1

// query Look up S/B: rabbit anti-human IgG monoclonal antibody clone 16F5 (antibody, V domains shown) VH: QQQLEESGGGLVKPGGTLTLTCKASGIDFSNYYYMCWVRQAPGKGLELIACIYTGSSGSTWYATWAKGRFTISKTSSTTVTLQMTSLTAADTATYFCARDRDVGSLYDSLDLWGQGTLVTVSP VL: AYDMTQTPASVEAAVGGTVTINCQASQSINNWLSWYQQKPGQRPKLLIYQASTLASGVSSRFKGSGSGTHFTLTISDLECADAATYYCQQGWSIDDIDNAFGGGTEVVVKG
// result 1.1

// query Requested read-out: S/B. Entry: rabbit anti-human IgG monoclonal antibody clone 9E6 (antibody, V domains shown) VH: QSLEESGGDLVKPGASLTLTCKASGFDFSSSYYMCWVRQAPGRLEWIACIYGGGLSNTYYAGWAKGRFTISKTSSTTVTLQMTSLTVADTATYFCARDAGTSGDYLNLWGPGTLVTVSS VL: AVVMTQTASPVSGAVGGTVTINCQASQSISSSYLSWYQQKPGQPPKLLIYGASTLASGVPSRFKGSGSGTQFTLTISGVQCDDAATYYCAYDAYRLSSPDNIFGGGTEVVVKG
// result 1.1
